Reported Activity by item:
Tested on: Mus musculus
measurement notes: Metabolic stability in C57BL/6 mouse assessed as alcohol pro-drug to phosphate drug conversion at 10 mg/kg, po after 6 hrs
Type: ADME, organism-based
Set-up: dose 10 mg/kg, route oral
assay setup: in vivo
Write the answer as a number in %, unit excluded.

C[C@](N)(COP(=O)(O)O)c1nc(-c2ccc(OCCc3ccc(-c4ccccc4)cc3)c(C(F)(F)F)c2)c[nH]1	6.8
C[C@](N)(CO)C(=O)Nc1ccc(OCCc2ccc(-c3ccccc3)cc2)cc1	14
C[C@](N)(COP(=O)(O)O)c1nc(-c2ccc(OCc3ccc(-c4ccccc4)cc3)c(C(F)(F)F)c2)c[nH]1	70.1

Enquiry: # return recorded Activity for entry C[C@](N)(CO)C(=O)Nc1ccc(C(=O)CCc2ccc(-c3ccccc3)cc2)cc1
Return: 40

----------
assay target: Sphingosine 1-phosphate receptor 4 (Homo sapiens)
Sequence (O95977 whole entry): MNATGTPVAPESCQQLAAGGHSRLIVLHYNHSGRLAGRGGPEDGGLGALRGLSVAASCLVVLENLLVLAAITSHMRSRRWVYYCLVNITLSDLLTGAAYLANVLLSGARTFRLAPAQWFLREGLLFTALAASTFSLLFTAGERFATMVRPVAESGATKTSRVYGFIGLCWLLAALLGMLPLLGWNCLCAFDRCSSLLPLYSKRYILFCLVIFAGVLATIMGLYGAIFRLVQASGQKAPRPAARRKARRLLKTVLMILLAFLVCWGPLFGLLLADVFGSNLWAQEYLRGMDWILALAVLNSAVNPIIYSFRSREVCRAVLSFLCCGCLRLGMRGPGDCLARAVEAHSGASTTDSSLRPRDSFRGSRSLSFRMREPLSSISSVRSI
measurement notes: Displacement of [33P]sphingosine-1-phosphate from human S1P4 receptor expressed in HEK293T cells after 60 mins by scintillation counting
Assay type: cell-based, HEK-293T
quantity: IC50
Write the numeric value and append its unit.

CCCCCCCCCCCCC/C=C/[C@@H](O)[C@@H](N)COP(=O)(O)O	1.04 nM
C[C@](N)(COP(=O)(O)O)C(=O)Nc1ccc(OCCc2ccc(-c3ccccc3)cc2)cc1	10.3 nM
C[C@](N)(COP(=O)(O)O)c1nc(-c2ccc(OCc3ccc(-c4ccccc4)cc3)c(C(F)(F)F)c2)c[nH]1	4.4 nM
C[C@](N)(COP(=O)(O)O)C(=O)Nc1ccc(C(=O)CCc2ccc(-c3ccccc3)cc2)cc1	13.1 nM
C[C@](N)(COP(=O)(O)O)C(=O)Nc1ccc(OCCc2ccc(-c3ccccc3)cc2)c(C(F)(F)F)c1	3.4 nM

// below: IC50 requested for another molecule
Enquiry: # return recorded IC50 for entry C[C@](N)(COP(=O)(O)O)c1nc(-c2ccc(OCCc3ccc(-c4ccccc4)cc3)c(C(F)(F)F)c2)c[nH]1
Return: 6.5 nM

----------
assay target: Sphingosine 1-phosphate receptor 1 (Homo sapiens, UniProt P21453)
Sequence (P21453 whole entry): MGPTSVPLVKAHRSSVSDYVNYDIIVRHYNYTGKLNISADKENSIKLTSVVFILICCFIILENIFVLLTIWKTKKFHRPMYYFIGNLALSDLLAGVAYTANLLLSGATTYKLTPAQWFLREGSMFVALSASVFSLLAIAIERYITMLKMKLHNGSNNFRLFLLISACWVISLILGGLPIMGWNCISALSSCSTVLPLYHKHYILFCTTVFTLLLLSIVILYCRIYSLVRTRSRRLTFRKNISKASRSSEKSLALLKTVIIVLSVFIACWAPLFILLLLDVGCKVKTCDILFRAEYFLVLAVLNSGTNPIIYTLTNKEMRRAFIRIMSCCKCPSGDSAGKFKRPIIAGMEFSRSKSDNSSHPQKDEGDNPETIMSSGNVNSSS
measurement notes: Displacement of [33P]sphingosine-1-phosphate from human S1P1 receptor expressed in HEK293T cells after 60 mins by scintillation counting
quantity: IC50 (nM)
Write the answer as a number in nM, unit excluded.

Recorded IC50, per entry:
C[C@](N)(COP(=O)(O)O)C(=O)Nc1ccc(C(=O)CCc2ccc(-c3ccccc3)cc2)cc1	4.14
COC(=O)c1cc(NC(=O)[C@@](C)(N)COP(=O)(O)O)ccc1OCCc1ccc(-c2ccccc2)cc1	21
C[C@](N)(COP(=O)(O)O)C(=O)Nc1ccc(OCCc2ccc(-c3ccccc3)cc2)c(Cl)c1	0.8
C[C@](N)(COP(=O)(O)O)c1nc(-c2ccc(OCCc3ccc(-c4ccccc4)cc3)c(C(F)(F)F)c2)c[nH]1	9.4
C[C@](N)(COP(=O)(O)O)C(=O)Nc1ccc(OCCc2ccc(-c3ccccc3)cc2)c(C(F)(F)F)c1	0.24

Enquiry: # return recorded IC50 for entry C[C@](N)(COP(=O)(O)O)C(=O)Nc1ccc(OCCc2ccc(-c3ccccc3)cc2)cc1C(F)(F)F
Return: 6.4

Enquiry: # return recorded IC50 for entry CCCCCCCCCCCCC/C=C/[C@@H](O)[C@@H](N)COP(=O)(O)O
Return: 0.78

The measured values listed here are drawn from ChEMBL document CHEMBL1156167.
